test system: hen osteoclasts; assay: inhibition of in vitro bone resorption activity of hen osteoclasts; type: cell-based; conditions: Osteoclast, read-out: IC50, in vitro bone resorption activity
endpoint name: pIC50
On this scale, pIC50 is minus log10 of a concentration expressed in M (mol/L).

IN: pIC50 lookup needed for COC[C@H]1OC(=O)c2coc3c2[C@@]1(C)C1=C(C3=O)[C@@H]2CCC(=O)[C@@]2(C)C[C@H]1OC(C)=O , thanks.
OUT: 6.52

---

Tested on: hen osteoclasts
Assay: inhibition of in vitro bone resorption activity of hen osteoclasts
Assay type: cell-based
Settings: Table 3, concentration 1 × 10^-6; mean ± SE, n=3-6
Method: Control resorption in Table 2b corresponded to 12-62 Howship's lacunae per bone slice (n=4-4. mean ±SE). As summarized in Table 3, the various analogs inhibited the resorption of hen osteoclasts with IIIA IC50=10 nM; IIIb, IC50=100 nM; and Ib, IC50=500 nM. Data presented are percent of control bone resorption (n=3-6, mean ±SE). Control levels of resorption varied from 26-49 mg bone resorbed between days 4-6 in culture.
endpoint name: percent of control bone resorption (%)
Reply numerically in %, unit not repeated.

IN: percent of control bone resorption lookup needed for Cc1c2c(c(O)c3occ(C(=O)O)c13)[C@@H]1CCC(=O)[C@@]1(C)C=C2 [IVa] , thanks.
OUT: 105

IN: percent of control bone resorption lookup needed for COC[C@H]1OC(=O)c2coc3c2[C@@]1(C)C1=C(C3=O)[C@@H]2CC[C@H](O)[C@@]2(C)CC1 [IIIb, 11-Desacetoxy-17α-dihydrowortmannin] , thanks.
OUT: 26

IN: percent of control bone resorption lookup needed for COC[C@H]1OC(=O)c2coc3c2[C@@]1(C)C1=C(C3=O)[C@@H]2CCC(=O)[C@@]2(C)CC1 [Ib, 11-deacetoxywortmannin] , thanks.
OUT: 42

IN: percent of control bone resorption lookup needed for COC[C@H]1OC(=O)c2coc3c2[C@@]1(C)C1=C(C3=O)[C@@H]2CC[C@H](O)[C@@]2(C)C[C@H]1OC(C)=O [IIIa, 17α-Dihydrowortmannin] , thanks.
OUT: 8

---

test system: hen osteoclasts; assay: inhibition of in vitro bone resorption activity of hen osteoclasts; format: cell-based; settings: Table 3, concentration 1 × 10^-8; mean ± SE, n=3-6
endpoint name: percent of control bone resorption

IN: API: value(readout=percent of control bone resorption, system=hen osteoclasts) for record COC[C@H]1OC(=O)c2coc3c2[C@@]1(C)C1=C(C3=O)[C@@H]2CC[C@H](O)[C@@]2(C)CC1 [IIIb, 11-Desacetoxy-17α-dihydrowortmannin]
OUT: 88 ± 19%

IN: API: value(readout=percent of control bone resorption, system=hen osteoclasts) for record COC[C@H]1OC(=O)c2coc3c2[C@@]1(C)C1=C(C3=O)[C@@H]2CC[C@H](O)[C@@]2(C)C[C@H]1OC(C)=O [IIIa, 17α-Dihydrowortmannin]
OUT: 67 ± 5%

IN: API: value(readout=percent of control bone resorption, system=hen osteoclasts) for record COC[C@H]1OC(=O)c2coc3c2[C@@]1(C)C1=C(C3=O)[C@@H]2CCC(=O)[C@@]2(C)CC1
OUT: 97 ± 17%

IN: API: value(readout=percent of control bone resorption, system=hen osteoclasts) for record Cc1c2c(c(O)c3occ(C(=O)O)c13)[C@@H]1CCC(=O)[C@@]1(C)C=C2
OUT: 99 ± 15%

Values compiled from patent US5468773A.
